Tested on: Colon cancer organoid
Test: Targeting of F14 CAF-induced therapy resistance in O23 CRC organoid-stroma co-culture. Cell viability is reported with Gefitinib.
Type: functional, Homo sapiens
Conditions: Homo sapiens, Concentration 10 uM; read-out: Cell Viability
Binary call on viability at 10 µM with cut-off 40%: strictly below means Met, and equality or higher means Not met.

Worked set:
>  <compound>
COc1cccc2c1C(=O)c1c(O)c3c(c(O)c1C2=O)CC(O)(C(=O)CO)CC3OC1CC(N)C(O)C(C)O1 (configuration not stated)

>  <measured_target>
Colon cancer organoid

>  <label_class>
Met

$$$$
>  <compound>
CC(C)Oc1ccc(-c2c[nH]cc2CN(C)CCO)cc1

>  <measured_target>
Colon cancer organoid

>  <label_class>
Not met

$$$$
>  <compound>
C[C@@H]1CC(=O)Nc2cccc(-c3ccc4c(c3)c(-c3cnn(C)c3)nn4C)c2N1

>  <measured_target>
Colon cancer organoid

>  <label_class>
Not met

$$$$
>  <compound>
O=C(O)c1ccc(-c2coc3ncc(-c4ccccc4)cc23)cc1Cl

>  <measured_target>
Colon cancer organoid

>  <label_class>
Not met

$$$$
>  <compound>
COc1cc(OC)cc(-c2noc(N3CCN(C)C4(CCN(c5ccnc(C)c5)CC4)C3)n2)c1

>  <measured_target>
Colon cancer organoid

>  <label_class>
Not met

$$$$

Lab note: confirm whether the reported viability at 10 µM for this compound is below 40%, equality not counting. compound: "CCS(=O)(=O)Nc1ccc(Oc2ccc(F)cc2F)c(-c2cn(C)c(=O)c3[nH]ccc23)c1" Met

Lab note: confirm whether the reported viability at 10 µM for this compound is below 40%, equality not counting. compound: CC(C)(C)OC(=O)N1CCCC1CNC1CCC(c2cc(F)ccc2F)(S(=O)(=O)c2ccc(Cl)cc2)CC1 (configuration not stated) Not met

Lab note: confirm whether the reported viability at 10 µM for this compound is below 40%, equality not counting. compound: "O=C1CCc2cc(Nc3cc(OC4CCOCC4)c([N+](=O)[O-])cc3Cl)ccc2N1" Not met

Lab note: confirm whether the reported viability at 10 µM for this compound is below 40%, equality not counting. compound: "O=C(NCc1ncc(C(F)(F)F)cc1Cl)c1ccc2c(c1)C1(CCS(=O)(=O)CC1)[C@@H](C1CC1)N2S(=O)(=O)c1ccc(F)cc1" Not met

Lab note: confirm whether the reported viability at 10 µM for this compound is below 40%, equality not counting. compound: "NC1(c2ccc(-c3nc4ccn5c(=O)[nH]nc5c4cc3-c3ccccc3)cc2)CCC1" Met

Lab note: confirm whether the reported viability at 10 µM for this compound is below 40%, equality not counting. compound: "CO[C@@H](C)c1c(Nc2ccc([C@@H](N(C)C(=O)C3CCS(=O)(=O)CC3)C(F)(F)F)cc2)cnc2cc(Cl)nn12" Not met

Lab note: confirm whether the reported viability at 10 µM for this compound is below 40%, equality not counting. compound: CN([C@@H]1CCc2c(CC(=O)O)c3cc(S(C)(=O)=O)ccc3n2C1)S(=O)(=O)c1ccc(F)cc1 [CRTH2-negative-control] Met

Lab note: confirm whether the reported viability at 10 µM for this compound is below 40%, equality not counting. compound: "Cn1cc(CNCC2CCN(c3ncc(C(=O)NO)cn3)CC2)c2ccccc21" Met

Lab note: confirm whether the reported viability at 10 µM for this compound is below 40%, equality not counting. compound: "CN(C)C(=O)c1ccc(-c2cc(C(=O)N[C@@H]3CCc4ccccc43)no2)cc1O" Not met

Lab note: confirm whether the reported viability at 10 µM for this compound is below 40%, equality not counting. compound: "CC(=O)Nc1nc(CN2CCC[C@H](Cc3cc(C)nc(C)c3)C2)cs1" Not met

Lab note: confirm whether the reported viability at 10 µM for this compound is below 40%, equality not counting. compound: "CNc1nc(-c2ccc3c(N)n[nH]c3c2)cc(N2C[C@@H](C(=O)NC3CCCCC3)CC[C@H]2C)n1" Met
